# experimental_details: MTT cytotoxicity assay, AGS
# experimental_parameters: human
Give measured IC50 at 24 h for each item. Keep answers brief.
Use µM as the unit, but write only the number.

Q: Please report the recorded IC50 at 24 h for CCCCCC1=CC(=O)C(C/C=C(\C)CCC=C(C)C)=C(O)C1=O [CBG-Q, CBG Hydroxyquinone] .
Result: 48

Q: Please report the recorded IC50 at 24 h for C=C(C)C1CCC(C)=C[C@H]1C1=C(O)C(=O)C(CCCCC)=CC1=O (some centres unmarked) .
Result: 7.44

---

# experimental_details: MTT cytotoxicity assay, HeLa
# experimental_parameters: human
measure_name: IC50 at 24 h (µM)
Use µM as the unit, but write only the number.

Q: Please report the recorded IC50 at 24 h for C=C(C)C1CCC(C)=C[C@H]1C1=C(O)C(=O)C(CCCCC)=CC1=O (some centres unmarked) [CBD-Q, CBD-Quinone] .
Result: 40.5

---

Give measured IC50 at 24 h for each item. Keep answers brief.
# experimental_details: MTT cytotoxicity assay, T47D
# experimental_parameters: human, T47D cells (human breast adenocarcinoma)
Use µM as the unit, but write only the number.

Q: Please report the recorded IC50 at 24 h for CCCCCc1cc(O)c(C/C=C(\C)CCC=C(C)C)c(O)c1 .
Result: 47

Q: Please report the recorded IC50 at 24 h for C=C(C)[C@@H]1CCC(C)=C[C@H]1c1c(O)cc(CCCCC)cc1O .
Result: 35

---

# experimental_details: MTT cytotoxicity assay, MDA
# experimental_parameters: human, MDA cells (human breast cancer)
measure_name: IC50 at 24 h

Q: Please report the recorded IC50 at 24 h for CCCCCc1cc(O)c(C/C=C(\C)CCC=C(C)C)c(O)c1 [CBG, cannabigerol] .
Result: > 50 µM

Q: Please report the recorded IC50 at 24 h for C=C(C)[C@@H]1CCC(C)=C[C@H]1c1c(O)cc(CCCCC)cc1O [CBD, cannabidiol] .
Result: > 50 µM

---

# System: T47D, human breast adenocarcinoma
# experimental_details: MTT cytotoxicity assay, T47D
# experimental_parameters: read-out: IC50 values of MTT cytotoxicity assay; T47D, 24 hours of treatment
measure_name: IC50 (µM)
Use µM as the unit, but write only the number.

Q: Query the reported IC50 for T47D, human breast adenocarcinoma; item: C=C(C)C1CCC(C)=C[C@H]1C1=C(O)C(=O)C(CCCCC)=CC1=O (stereo partly shown) [CBD-Q, CBD-Quinone]
Result: 17.1

---

# experimental_details: MTT cytotoxicity assay, AGS
# experimental_parameters: human, AGS cells (human gastric adenocarcinoma)
measure_name: IC50 at 24 h (µM)
Use µM as the unit, but write only the number.

Q: Please report the recorded IC50 at 24 h for C=C(C)[C@@H]1CCC(C)=C[C@H]1c1c(O)cc(CCCCC)cc1O .
Result: 25

---

# experimental_details: MTT cytotoxicity assay, HeLa
# experimental_parameters: human, HeLa cells (human cervical carcinoma)
Give measured IC50 at 24 h for each item. Keep answers brief.

Q: Please report the recorded IC50 at 24 h for CCCCCc1cc(O)c(C/C=C(\C)CCC=C(C)C)c(O)c1 .
Result: > 50 µM

Q: Please report the recorded IC50 at 24 h for C=C(C)[C@@H]1CCC(C)=C[C@H]1c1c(O)cc(CCCCC)cc1O .
Result: > 50 µM

Ref: patent US8772349B2
